compounds and their reported Dmax
- target.or.test.system: MerTK (Homo sapiens, UniProt Q12866)
- Construct: endogenous in cells; host or cells: Jurkat cells
- Sequence (Q12866 21-999): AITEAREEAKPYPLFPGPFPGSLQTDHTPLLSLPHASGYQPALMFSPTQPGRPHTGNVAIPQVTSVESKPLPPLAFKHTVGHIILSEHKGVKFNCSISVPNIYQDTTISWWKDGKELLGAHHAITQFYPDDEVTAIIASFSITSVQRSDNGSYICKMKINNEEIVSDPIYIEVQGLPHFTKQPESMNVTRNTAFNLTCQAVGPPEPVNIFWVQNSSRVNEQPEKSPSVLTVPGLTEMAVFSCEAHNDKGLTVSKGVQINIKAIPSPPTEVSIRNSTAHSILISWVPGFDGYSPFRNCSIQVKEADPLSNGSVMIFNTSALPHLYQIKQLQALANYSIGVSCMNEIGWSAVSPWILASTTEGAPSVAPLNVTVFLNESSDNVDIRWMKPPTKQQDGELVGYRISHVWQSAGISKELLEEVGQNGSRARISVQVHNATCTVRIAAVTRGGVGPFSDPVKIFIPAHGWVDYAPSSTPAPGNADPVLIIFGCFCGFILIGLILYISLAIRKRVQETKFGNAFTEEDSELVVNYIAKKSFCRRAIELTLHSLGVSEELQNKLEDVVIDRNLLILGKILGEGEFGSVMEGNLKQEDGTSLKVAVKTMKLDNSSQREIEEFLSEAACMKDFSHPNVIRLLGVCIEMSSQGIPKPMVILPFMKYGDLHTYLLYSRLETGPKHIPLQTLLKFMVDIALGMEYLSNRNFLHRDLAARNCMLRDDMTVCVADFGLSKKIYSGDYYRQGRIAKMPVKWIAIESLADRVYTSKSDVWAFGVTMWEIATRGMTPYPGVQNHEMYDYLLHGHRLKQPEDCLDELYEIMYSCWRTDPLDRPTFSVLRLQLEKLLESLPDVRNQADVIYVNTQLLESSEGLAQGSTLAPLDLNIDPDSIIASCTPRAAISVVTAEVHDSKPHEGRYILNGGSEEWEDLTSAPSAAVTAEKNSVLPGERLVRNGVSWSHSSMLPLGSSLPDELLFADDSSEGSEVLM
- run.description: MerTk degradation in Jurkat cells (Western blot)
- Type: cell-based
- setup.conditions: Jurkat, 4 h, 0.001-1 μM, 4 hour-incubation at 37° C., read-out: Jurkat Max % MerTK Degradation

# annotated cases, reported Dmax shown
>  <compound>
Cn1c(=O)n([C@H]2CCC(=O)NC2=O)c2ccc(CCCOCCOC3CCN(C[C@H]4CC[C@H](c5cn([C@H]6CC[C@H](O)CC6)c6nc(NCCC(F)(F)F)ncc65)CC4)CC3)cc21 [I-163]

>  <target.or.test.system>
MerTK (Homo sapiens, UniProt Q12866)

>  <readout.label>
Dmax

>  <reported>
> 50%

$$$$
>  <compound>
CCCCNc1ncc2c(-c3ccc([C@@H](C)N4CCN(CCCOCCCc5ccc6c(c5)n(C)c(=O)n6C5CCC(=O)NC5=O)CC4)cc3)cn([C@H]3CC[C@H](O)CC3)c2n1 (some centres unmarked) [I-103]

>  <target.or.test.system>
MerTK (Homo sapiens, UniProt Q12866)

>  <readout.label>
Dmax

>  <reported>
> 50%

$$$$
>  <compound>
CCCCNc1ncc2c(-c3ccc(CNCCCC(=O)N(C)CCOCCCc4ccc5c(c4)n(C)c(=O)n5[C@H]4CCC(=O)NC4=O)cc3)cn([C@H]3CC[C@H](O)CC3)c2n1 [I-67]

>  <target.or.test.system>
MerTK (Homo sapiens, UniProt Q12866)

>  <readout.label>
Dmax

>  <reported>
> 50%

$$$$

Measured Dmax, Cn1c(=O)n(C2CCC(=O)NC2=O)c2ccc(CCOCCN3CCC(N4CCN(Cc5ccc(-c6cn([C@H]7CC[C@H](O)CC7)c7nc(NCCC(F)(F)F)ncc67)cc5)CC4)C3)cc21 (some centres unmarked) [I-132] : > 50%

Looking up C[C@@H](CC(F)(F)F)Nc1ncc2c(-c3ccc(CN4CCN(C5CC(OCCc6ccc7c(c6)n(C)c(=O)n7C6CCC(=O)NC6=O)C5)CC4)cc3)cn([C@H]3CC[C@H](O)CC3)c2n1 (some centres unmarked) [I-195] , I see its Dmax listed as 20 to 50%
